Sourced from ChEMBL document CHEMBL1201862

tested on: SNB-78; test: NCI tumour cell line growth inhibition, 48 h
Activity calls are given as the source filed them. Rule as the data show it: active = GI50 up to about 1.1 µM and inactive = higher.
Attribute Measured: GI50

Incoming: # GI50 lookup, item O=C(O)C(CS)Nc1c2ccccc2[n+]([O-])c2ccccc12 (centres undefined)
Outgoing: > 100 µM (inactive)

Incoming: # GI50 lookup, item COC(=O)C(CCCCCCCC(C(=O)OC)C1=Nc2nnc(N)n2C1=O)C1=Nc2nnc(N)n2C1=O (centres undefined)
Outgoing: > 100 µM (inactive)

Incoming: # GI50 lookup, item CC(=O)O[C@H]1CCC2[C@@H]3CC[C@]4(C)CC(=O)C=C[C@]4(C)C3CC[C@@]21C (some centres undefined)
Outgoing: 14.9 µM (inactive)

Incoming: # GI50 lookup, item CSC1CC2C(CC1(C)SC)C2(C)C (centres undefined)
Outgoing: 74.3 µM (inactive)

* * *

system: MDA-MB-435; assay: NCI tumour cell line growth inhibition, 48 h
The source made the active and inactive calls. Cut-off read from the data, not from the text of the source: active = GI50 up to about 1.1 µM and inactive = higher.
Give your call using only these classes: class 1 for active, class 0 for inactive

Incoming: Short answer needed: outcome of this test for COc1ccccc1C(C1=C(O)COC1=O)c1cc2c(cc1OC(C)=O)OCO2 (configuration not stated) ?
Outgoing: class 0

Incoming: Short answer needed: outcome of this test for CCN1/C(=C/c2ccc3ccccc3[n+]2CC)C=Cc2ccccc21 ?
Outgoing: class 1

Incoming: Short answer needed: outcome of this test for CCOP(=O)(OCC)[C@]12C[C@@H](C)C=C[C@H]1COC2=O ?
Outgoing: class 0

Incoming: Short answer needed: outcome of this test for COC(=O)c1ccccc1C#CCCCOS(C)(=O)=O ?
Outgoing: class 0

Incoming: Short answer needed: outcome of this test for N/N=C1/C2CN3CCN(C2)CC1(c1ccc([N+](=O)[O-])cc1)C3 ?
Outgoing: class 0

Incoming: Short answer needed: outcome of this test for CC(NC(=O)C(C)C(=O)Nc1ccc(C(F)(F)F)cc1)C(N)=O (configuration not stated) ?
Outgoing: class 0

Incoming: Short answer needed: outcome of this test for Cc1nn(C(=O)Cc2ccccc2)c2c1C(c1ccccc1)SC(=N)N2 (configuration not stated) ?
Outgoing: class 0

Incoming: Short answer needed: outcome of this test for CC(Cc1cccc2c1Nc1ccccc1S2)N(C)CCO (configuration not stated) ?
Outgoing: class 0

Incoming: Short answer needed: outcome of this test for COC(=O)[C@]1(c2cc3ccccc3[nH]2)CC2CN(C(=O)OCc3ccccc3)C1C=C2OC (some centres not stated) ?
Outgoing: class 0

Incoming: Short answer needed: outcome of this test for CC(=O)NNc1nc(C)c(C(=O)NNC(=O)C(=O)Nc2nc3ccc([N+](=O)[O-])cc3s2)s1 ?
Outgoing: class 0

Incoming: Short answer needed: outcome of this test for O=c1[nH]/c(=C/c2ccc(OCc3ccccc3)cn2)c(=O)[nH]/c1=C/c1ccc(O)cc1 ?
Outgoing: class 1

Incoming: Short answer needed: outcome of this test for CC(=O)/C(=C/n1c(=S)[nH]c2ccccc21)C(=O)Nc1ccccc1C ?
Outgoing: class 0

Incoming: Short answer needed: outcome of this test for CC(C)(O)C1COC2=C1C(=O)c1ccccc1C2=O (configuration not stated) ?
Outgoing: class 0

Incoming: Short answer needed: outcome of this test for Cc1c(Cc2ccccc2)c(Cc2ccccc2)c(C)[s+]1[O-] ?
Outgoing: class 0

Incoming: Short answer needed: outcome of this test for Cc1cccc(C)c1NC(=S)N/C=C(\C#N)C(N)=O ?
Outgoing: class 0

Incoming: Short answer needed: outcome of this test for O=C1N[C@@H]2c3c(Br)sc(Br)c3C(=O)[C@@H]2O1 ?
Outgoing: class 0

Incoming: Short answer needed: outcome of this test for COC(=O)/C(=N\NC(=S)NN)C(C(=O)OC)C(=O)C(=O)Nc1cccc(C(F)(F)F)c1 (configuration not stated) ?
Outgoing: class 0
